Just for reference, ChEMBL document CHEMBL5291721 is where these values come from.

Give AC50 for every item shown.
Target: Motilin receptor (Homo sapiens, UniProt O43193); also: assay procedure not described here
Sequence (O43193 whole entry): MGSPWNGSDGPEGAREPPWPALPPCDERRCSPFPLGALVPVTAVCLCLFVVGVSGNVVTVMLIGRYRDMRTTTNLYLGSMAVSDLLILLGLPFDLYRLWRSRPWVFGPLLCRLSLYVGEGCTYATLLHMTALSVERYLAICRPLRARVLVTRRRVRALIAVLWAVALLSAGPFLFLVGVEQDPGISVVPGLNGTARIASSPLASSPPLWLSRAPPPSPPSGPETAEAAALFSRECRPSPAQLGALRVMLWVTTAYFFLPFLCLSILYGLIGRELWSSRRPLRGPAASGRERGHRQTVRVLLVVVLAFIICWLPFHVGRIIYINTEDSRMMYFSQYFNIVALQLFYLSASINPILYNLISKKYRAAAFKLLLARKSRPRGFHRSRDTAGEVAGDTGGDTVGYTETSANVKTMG

Worked set:
[
  {
    "compound": "CCCC(C)(COC(N)=O)COC(N)=O [MEPROBAMATE]",
    "AC50": "> 10 µM"
  },
  {
    "compound": "CC(O)(CS(=O)(=O)c1ccc(F)cc1)C(=O)Nc1ccc(C#N)c(C(F)(F)F)c1 (stereo not drawn) [BICALUTAMIDE]",
    "AC50": "> 30 µM"
  },
  {
    "compound": "CN(C)Cc1nnc2n1-c1ccc(Cl)cc1C(c1ccccc1)=NC2",
    "AC50": "> 10 µM"
  },
  {
    "compound": "COc1cc(C(C)=O)ccc1OCCCN1CCC(c2noc3cc(F)ccc23)CC1",
    "AC50": "> 30 µM"
  },
  {
    "compound": "NS(=O)(=O)c1cc2c(cc1Cl)N=C(CSCc1ccccc1)NS2(=O)=O [BENZTHIAZIDE]",
    "AC50": "> 10 µM"
  },
  {
    "compound": "CC(C)(C)NCC(O)c1ccccc1Cl (stereo not drawn)",
    "AC50": "> 30 µM"
  },
  {
    "compound": "Cc1onc(-c2c(F)cccc2Cl)c1C(=O)N[C@@H]1C(=O)N2[C@@H]1SC(C)(C)[C@@H]2C(=O)O",
    "AC50": "> 30 µM"
  }
]

Query: I have this compound here, "CO/N=C(\C(=O)N[C@@H]1C(=O)N2C(C(=O)O)=C(CSc3nc(=O)c(=O)[nH]n3C)CS[C@H]12)c1csc(N)n1" , and I need its recorded AC50.
Result: > 30 µM

* * *

Target: Alpha-2C adrenergic receptor (Homo sapiens, UniProt P18825); also: assay procedure not described here
Sequence (P18825 whole entry): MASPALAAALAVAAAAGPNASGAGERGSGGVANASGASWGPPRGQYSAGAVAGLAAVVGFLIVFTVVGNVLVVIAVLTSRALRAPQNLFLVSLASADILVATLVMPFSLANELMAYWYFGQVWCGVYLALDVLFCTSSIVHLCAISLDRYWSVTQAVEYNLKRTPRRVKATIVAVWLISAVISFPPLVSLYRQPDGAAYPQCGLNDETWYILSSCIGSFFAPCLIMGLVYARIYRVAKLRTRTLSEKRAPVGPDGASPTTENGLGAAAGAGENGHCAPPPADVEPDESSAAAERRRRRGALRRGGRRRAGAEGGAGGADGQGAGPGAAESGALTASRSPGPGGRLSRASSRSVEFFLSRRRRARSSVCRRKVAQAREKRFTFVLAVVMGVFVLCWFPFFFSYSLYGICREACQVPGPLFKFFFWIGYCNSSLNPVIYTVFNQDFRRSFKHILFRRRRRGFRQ
Type: functional
AC50 strictly less than 4 µM = criterion met. Otherwise criterion not met.

Example entries and their recorded answers appear below.
[
  {
    "compound": "O=C(O)c1ccc(NC(=O)[C@H](Cc2ccc(O)cc2)NC(=O)c2ccccc2)cc1 [BENTIROMIDE]",
    "class assignment": "criterion not met"
  },
  {
    "compound": "CN(C)Cc1nnc2n1-c1ccc(Cl)cc1C(c1ccccc1)=NC2",
    "class assignment": "criterion not met"
  },
  {
    "compound": "C=CCN1CCc2nc(N)sc2CC1 [TALIPEXOLE]",
    "class assignment": "criterion met"
  }
]

Query: API: query returns whether the compound falls strictly under 4 µM in AC50. Query: "COc1ccc(CN2CCN(C(c3ccc(F)cc3)c3ccc(F)cc3)CC2)c(OC)c1OC"
Result: criterion not met

Query: Can you check O=c1[nH]c2ccccc2n1CCCN1CCN(C(c2ccccc2)c2ccccc2)CC1 [OXATOMIDE] next?
Result: criterion met

Query: Can you check CCN1CC(CCN2CCOCC2)C(c2ccccc2)(c2ccccc2)C1=O (stereo not drawn) next?
Result: criterion not met

Query: Can you check "Oc1ccc(CCNCCCCCCNCCc2ccccc2)cc1O" next?
Result: criterion met

* * *

Target: Sodium-dependent dopamine transporter (Homo sapiens); also: assay procedure not described here
Sequence (Q01959 whole entry): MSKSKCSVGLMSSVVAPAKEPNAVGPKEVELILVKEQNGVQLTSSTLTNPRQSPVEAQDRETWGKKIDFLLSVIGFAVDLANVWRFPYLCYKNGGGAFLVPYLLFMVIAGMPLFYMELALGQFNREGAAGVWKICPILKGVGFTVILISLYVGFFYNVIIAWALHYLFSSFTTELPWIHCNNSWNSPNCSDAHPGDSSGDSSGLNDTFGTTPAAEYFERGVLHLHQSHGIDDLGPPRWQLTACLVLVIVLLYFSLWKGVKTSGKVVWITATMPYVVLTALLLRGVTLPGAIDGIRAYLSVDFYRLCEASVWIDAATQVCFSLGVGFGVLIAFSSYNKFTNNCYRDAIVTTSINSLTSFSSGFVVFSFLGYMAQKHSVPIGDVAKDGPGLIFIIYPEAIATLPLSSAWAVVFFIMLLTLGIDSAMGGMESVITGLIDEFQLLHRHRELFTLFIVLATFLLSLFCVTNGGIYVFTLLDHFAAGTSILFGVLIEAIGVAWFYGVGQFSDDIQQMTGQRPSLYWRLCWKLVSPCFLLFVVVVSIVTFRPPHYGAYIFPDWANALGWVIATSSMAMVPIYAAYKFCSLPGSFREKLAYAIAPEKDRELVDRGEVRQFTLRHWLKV
Give AC50 for every item shown.

Worked set:
[
  {
    "molecule": "COc1cc(C)c2c(Oc3cccc(C(F)(F)F)c3)c(OC)cc(NC(C)CCCN)c2n1 (configuration not stated)",
    "AC50": "5.98 µM"
  },
  {
    "molecule": "O=S1(=O)CCN(CN2CCS(=O)(=O)NC2)CN1",
    "AC50": "> 30 µM"
  },
  {
    "molecule": "O=C(O)c1ccccc1",
    "AC50": "> 30 µM"
  },
  {
    "molecule": "Cc1cc(C2CCCCC2)n(O)c(=O)c1",
    "AC50": "> 30 µM"
  },
  {
    "molecule": "C[C@H]1CN(C[C@H](Cc2ccccc2)C(=O)NCC(=O)O)CC[C@@]1(C)c1cccc(O)c1",
    "AC50": "> 30 µM"
  }
]

Batch request: AC50 for each of the following molecules.
1. CC[C@@H]1C[C@]1(NC(=O)[C@@H]1C[C@@H]2CN1C(=O)[C@H](C(C)(C)C)NC(=O)OCC(C)(C)CCCCc1cccc3c1CN(C3)C(=O)O2)C(=O)NS(=O)(=O)C1CC1
2. CC(C(=O)O)c1cccc(Oc2ccccc2)c1 (configuration not stated)

Result:
1. > 30 µM
2. > 30 µM

Batch request: AC50 for each of the following molecules.
1. COc1ccc2[nH]c([S+]([O-])Cc3ncc(C)c(OC)c3C)nc2c1 (configuration not stated)
2. Cc1cc(=O)[nH]c(=S)[nH]1
3. CCC1=C[C@@H]2CN(C1)Cc1c([nH]c3ccccc13)[C@@](C(=O)OC)(c1cc3c(cc1OC)N(C)[C@H]1[C@@](O)(C(=O)OC)[C@H](OC(C)=O)[C@]4(CC)C=CCN5CC[C@]31[C@@H]54)C2
4. COc1ccccc1OC1(C)OC(=O)c2ccccc2O1 (configuration not stated)
5. CCCSc1nc(N[C@@H]2C[C@H]2c2ccc(F)c(F)c2)c2nnn([C@@H]3C[C@H](OCCO)[C@@H](O)[C@H]3O)c2n1

Result:
1. > 30 µM
2. > 30 µM
3. > 30 µM
4. > 30 µM
5. 0.425 µM

Batch request: AC50 for each of the following molecules.
1. Cc1ccsc1C(=CCCN1CCC[C@@H](C(=O)O)C1)c1sccc1C
2. CC(O)(P(=O)(O)O)P(=O)(O)O
3. CN(C)c1ccc(O)c2c1C[C@H]1C[C@H]3[C@H](N(C)C)C(O)=C(C(N)=O)C(=O)[C@@]3(O)C(O)=C1C2=O
4. CC(C)NC(=N)NC(=N)Nc1ccc(Cl)c(Cl)c1
5. CCCc1nc2c(C)cc(-c3nc4ccccc4n3C)cc2n1Cc1ccc(-c2ccccc2C(=O)O)cc1

Result:
> 30 µM
> 30 µM
> 30 µM
1.86 µM
> 30 µM
